biological target: T1, cynomolgus soluble urokinase plasminogen activator receptor (cynomolgus suPAR) (cynomolgus, UniProt Q9GK78 23-303, limits assumed); test: BLI (Octet) off-rate screen of scFv
T1 construct: also called cynomolgus uPAR; cynoPLAUR-His
T1 sequence (Q9GK78 23-303 limits assumed): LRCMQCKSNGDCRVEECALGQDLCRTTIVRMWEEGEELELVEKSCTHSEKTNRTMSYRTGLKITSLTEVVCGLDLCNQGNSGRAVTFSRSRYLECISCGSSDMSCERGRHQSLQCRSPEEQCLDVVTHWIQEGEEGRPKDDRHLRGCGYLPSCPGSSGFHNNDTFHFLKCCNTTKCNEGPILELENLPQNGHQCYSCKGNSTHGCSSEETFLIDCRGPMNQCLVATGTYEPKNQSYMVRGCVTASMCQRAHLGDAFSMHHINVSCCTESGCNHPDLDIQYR
experimentalReadout: koff
Record the result as a number with its unit.

>>> value("suPAR_DB01_F10 (scFv, V domains shown, Screened as scFv) VH: QVQLVQSGAEVKKPGASVKVSCKASGYTFTSYYMHWVRQAPGQGLEWMGWIDHENGSTSYDQKFQGRVTMTRDTSTSTVYMELSSLRSEDTAVYYCARGYDVDWFVYWGQGTLVTVSS VL: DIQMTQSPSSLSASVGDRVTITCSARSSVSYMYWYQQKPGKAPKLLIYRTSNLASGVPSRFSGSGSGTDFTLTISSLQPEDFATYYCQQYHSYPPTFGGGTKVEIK")
"3.88e-05 s⁻¹"

Query :: Quick one: koff for suPAR_DB01_G01 (scFv, V domains shown, Screened as scFv) VH: QVQLVQSGAEVKKPGASVKVSCKASGDTFSSYYMHWVRQAPGQGLEWMGWIDHENGNTIYDQKFQGRVTMTRDTSTSTVYMELSSLRSEDTAVYYCARGYDVDWFVYWGQGTLVTVSS VL: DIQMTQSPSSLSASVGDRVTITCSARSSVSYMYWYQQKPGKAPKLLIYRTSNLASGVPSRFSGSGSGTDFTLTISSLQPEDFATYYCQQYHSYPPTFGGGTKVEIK ?
Result :: 0.000152 s⁻¹

Where do the numbers come from? From patent US20250215104A1.
